# System: ACHN renal
# assay-overview: NCI tumour cell line growth inhibition, 48 h
*1 amine or outer side, *2 acyl side, *3 side chain or, on linkers, in order; H or OH if unused. Where a SMILES comes first, the peptide text is derived from it. Bridges are numbered along the chain shown (N, C = ends). [ ]: non-standard residue; d: D form. The star is where a group is joined. X38 = CC[C@H](C)[C@@H](N[*:1])[C@@H](O)CC(=O)[*:2]; NMeY = CN[C@@H](Cc1ccc(O)cc1)C(=O)O; dNMeL = CN[C@H](CC(C)C)C(=O)O; Hiv = CC(C)[C@H](O)C(=O)O; Pyruvoyl = CC(=O)C(=O)*

{"columns": ["compound", "TGI"],
 "data": [
  ["COc1cc(S(=O)(=O)Nc2ccc(-c3csc(N4C(=O)CSC4c4cccs4)n3)cc2)ccc1Cl (centres undefined)", "> 100 µM"],
  ["CCCN1C(=O)/C(=c2\\sc3n(c2=O)C2C(NN=3)N(CC)C(=O)N2CC)c2ccccc21 (centres undefined)", "17.1 µM"],
  ["CC[C@H](C)[C@H]1NC(=O)[C@@H](NC(=O)[C@@H](CC(C)C)N(C)C(=O)[C@@H]2CCCN2C(=O)C(C)=O)[C@@H](C)OC(=O)[C@H](Cc2ccc(OC)cc2)N(C)C(=O)[C@@H]2CCCN2C(=O)[C@H](CC(C)C)NC(=O)[C@H](C(C)C)OC(=O)C[C@@H]1O (Pyruvoyl-P[dNMeL]T[X38][Hiv]LP[NMeY](Me); ester 3-C)", "0.438 µM"],
  ["CC1=C(C(=O)Nc2cccc3c2C(=O)NC3=O)CC(C(=O)Nc2cccc3c2C(=O)NC3=O)=C(C)N1", "> 100 µM"],
  ["Cn1c(=O)c2[nH]c(/N=N/N3CCN(CCO)CC3)nc2n(C)c1=O", "> 100 µM"],
  ["Nc1cc(=O)[nH]c(SC2=NC(N)CC(O)C2)n1 (centres undefined)", "> 100 µM"],
  ["COc1cc(/C=C/C(=O)c2sc(-n3nc(-c4ccccc4)cc3-c3ccccc3)nc2C)ccc1O", "> 100 µM"],
  ["CCCN(Cc1ccc(F)cc1)c1ccc(CO)c(Cl)c1", "22.8 µM"],
  ["Cc1cc(N2CCCCC2)nc(N(CCNc2ccnc3cc(Cl)ccc23)Cc2ccco2)n1", "8.06 µM"],
  ["CCN(CC)c1ccc(/C=C/c2cc(C)c3ccccc3n2)cc1", "> 100 µM"],
  ["Cc1nn2c(=O)c([N+](=O)[O-])c(/C=C/c3ccccc3)nc2s1", "74.9 µM"],
  ["CCCCCC(=O)Nc1n[nH]nc1C(N)=O", "> 100 µM"],
  ["CCOC(C[C@H](O)[C@H]1COC(=S)S1)OCC", "> 100 µM"],
  ["CC[C@H](Nc1nc(N)nc(C)c1C#N)c1nc2cccc(CN(C)c3ncc(C(=O)NO)cn3)c2c(=O)n1-c1ccccc1", "3.79 µM"],
  ["O=c1[nH]c(=O)n(C2OC(CO)C(O)C(F)C2O)cc1F (centres undefined)", "> 100 µM"],
  ["CCCC(O)[C@@H](O)c1ccc2c(c1O)C(=O)c1c(OC)cccc1C2=O (some centres undefined)", "> 100 µM"],
  ["Cn1nc(Cc2ccc(Cl)cc2)n(N)c1=O", "> 100 µM"],
  ["CC1=CC(=O)c2c(O)cccc2C1=O", "3.01 µM"],
  ["CCOC(=O)C(c1c[nH]c2ccccc12)(c1c[nH]c2ccccc12)c1c[nH]c2ccccc12", "> 100 µM"]
]}
